# procedureDetails: Clearance in CD-1 mouse plasma at 1 mg/kg, iv or 5 mg/kg, po
# Format: ADME, organism-based
resultType: clearance
Reply with a number, then the unit it belongs to.

Consider the following illustrative entries.
• CC(C)c1c(-c2cnn(C)c2)[nH]c2c(C#N)cnn2c1=O = 59.9 mL/min/kg
• CC(C)c1c(-c2cnn(C(C)(C)C)c2)[nH]c2c(C#N)cnn2c1=O = 5 mL/min/kg
• CC(C)c1c(-c2cnn(-c3ccccc3)c2)[nH]c2c(C#N)cnn2c1=O = 7.7 mL/min/kg

Next item in the queue.
Ask: Identify the reported clearance for the following entry. CC(C)c1c(-c2cnn(C(C)C)c2)[nH]c2c(C#N)cnn2c1=O
Reply: 15.7 mL/min/kg
